Across several publications, the following Ki results were reported for Coagulation factor X (Homo sapiens, UniProt P00742).
Readout Kind: Ki (nM)

Past entries and their recorded results:
Cc1cc(C(=O)Nc2ccc(-c3ccccc3S(N)(=O)=O)cn2)n(-c2ccc3cc(Cl)ccc3c2)n1: 1.9
COc1ccc(-n2nc(C(N)=O)c3c2C(=O)N(C2CCN(c4ccccc4S(N)(=O)=O)CC2)CC3)cc1: 3.9
CN1CCN(Cc2c(C(=O)Nc3ccc(Cl)cc3C(=O)Nc3ccc(Cl)cc3)sc3ccccc23)CC1: 20

a: C=CCOC(=O)N1CCC(Oc2ccc(C(Oc3ccc4c(c3)CN(C(=N)N)CC4)C(=O)OCC)cc2)CC1 (stereo not drawn)
b: CN(C)C(=N)c1ccc(NC(=O)c2cc(C(F)(F)F)nn2-c2ccc3cc(Cl)ccc3c2)c(F)c1
c: CS(=O)(=O)c1ccccc1-c1ccc(N2CCCC(NS(=O)(=O)c3ccc(F)cc3)C2=O)c(F)c1 (stereo not drawn)
d: N=C(N)NCCC(=O)Nc1ccc(S(=O)(=O)N[C@@H](Cc2cccc(C(=N)N)c2)C(=O)N2CCC(CCNC(=N)N)CC2)cc1
Returns the items ordered by Ki, from maximum to minimum. // list labels; follow requested order d, a, c, b
(d: 10000 nM, a: 3000 nM, c: 44.5 nM, b: 0.9 nM)

====

pKi: −log10 of the molar value.
Across several publications, the following pKi results were reported for Coagulation factor X (Homo sapiens).
Readout Kind: pKi

Past entries and their recorded results:
COCCOCCOCc1csc(C(=O)Nc2ccc(Cl)cc2C(=O)Nc2ccc(Cl)cc2)c1Cl: 8.00
CC(=N)N1CCC(Oc2ccc3ncn(Cc4ccc5ccc(C(=N)N)cc5c4)c3c2)CC1: 8.54
Cc1cc(C(=O)Nc2ccc(-c3ccccc3S(N)(=O)=O)cc2)n(-c2cccc(N)c2)n1: 7.20
COC(=O)CC(CCc1ccc(N=C(N)N)cc1)c1cccc(C(=N)N)c1 (centres undefined): 8.05

1: Nc1noc2ccc(-n3nc(C(F)(F)F)cc3C(=O)N3CCc4cc(-c5ccccc5S(N)(=O)=O)ccc43)cc12
2: CCOC(=O)Nc1cccc(S(=O)(=O)N[C@@H](Cc2cccc(C(=N)N)c2)C(=O)N2CCC(CCN)CC2)c1
Please compare: 1 and 2 . Report which one has the smaller pKi value. # answer = label of selected item 2
(2: 4.85, 1: 8.57)

P: CCN1CCN(Cc2csc(C(=O)Nc3ccc(Cl)cc3C(=O)Nc3ccc(Cl)cc3)c2Cl)CC1
Q: CCOC(=O)CC(CCc1ccccc1)c1cccc(C(=N)N)c1 (centres undefined)
Please compare: P and Q . Report which one has the smaller pKi value. # answer = label of selected item Q

====

Across several publications, the following pKi results were reported for Coagulation factor X (Homo sapiens, UniProt P00742).
pKi: −log10 of the molar value.
Readout Kind: pKi

Past entries and their recorded results:
N=C(N)c1cccc(Oc2cc(Oc3ccccc3C(=N)N)ccc2[N+](=O)[O-])c1: 6.52
Nc1noc2ccc(-n3nc(C(F)(F)F)c4c3C(=O)N(c3ccc(-c5ccccc5CN5CC[C@@H](O)C5)cc3)CN4)cc12: 9.68
CCOC(=O)C1CCN(c2ccc(N3C[C@H](CNC(=O)c4cnc(N)s4)OC3=O)cc2)CC1.O=C(O)C(F)(F)F: 4.26
Cc1nn(-c2ccc3onc(N)c3c2)c2c(=O)n(-c3ccc(-c4ccccc4CNCC4CC4)cc3)cnc12: 8.77
COC(=O)[C@H](Cc1cccc(C(=N)N)c1)[C@@H](/C=C/c1ccccc1)NC(=O)c1ccc(-c2ccccc2)cc1: 8.03

A: N=CNCCCC(NC(=O)CN(CC1(c2ccccc2)CC1)C(=O)CCc1ccccc1)B(O)O (configuration not stated)
B: C[N+](C)(C)c1ccc(CNC(=O)c2cc3cc(O)ccc3n2Cc2cccc(C(=N)N)c2)cc1
Please compare: A and B . Report which one has the smaller pKi value. # answer = label of selected item A

A: CC(C)CNC(=O)c1ccc(-c2cccc([C@@H]3C[C@H](c4ccccc4)c4cc(C(=N)N)ccc4N3)c2)c(C(=O)O)c1 (racemic)
B: COc1ccc2ccc(S(=O)(=O)NC3CCN(Cc4ccc(O)c(C(=N)N)c4)C3=O)cc2c1 (configuration not stated)
From the recorded data, which exceeds the other in pKi: A or B ? # answer = label of selected item A
(A: 7.62, B: 6.00)

A: COc1ccc(-n2nc(C(F)(F)F)c3c2C(=O)N(c2ccc(N4CCCCCC4=O)cc2)CC3)cc1
B: Cc1cc(C(=O)Nc2ccc(C(=N)N3CCCCC3)cc2F)n(-c2cc3ccccc3cc2F)n1
C: COc1ccc(NC(=O)c2cc(C)ccc2NC(=O)c2sc3ccccc3c2Cl)cc1
Returns the items ordered by pKi, from maximum to minimum. // list labels; follow requested order A, B, C

====

Across several publications, the following pKi results were reported for Coagulation factor X (Homo sapiens, UniProt P00742).
pKi: −log10 of the molar value.
Readout Kind: pKi

Past entries and their recorded results:
COC(=O)CC(=O)N(Cc1ccccc1)c1ccc2c(c1)OC(Cc1ccc(C(=N)N)cc1)C(=O)N2C (centres undefined): 5.24
CCOC(=O)CC(CCc1cccc(C(=N)N)c1)c1ccc(C(=N)N)cc1 (centres undefined): 5.78
CN(C)CCOc1ccc(NC(=O)OCC(Oc2cccc3sc(C(=N)N)cc23)c2ccccc2)cc1 (centres undefined): 6.06

1: COc1ccc(C(=O)Nc2ccc(-c3ccccc3C#N)cc2)cc1OCCc1ccc(Cl)cc1Cl
2: COc1ccc(-n2nc(Cn3cncn3)c3c2C(=O)N(c2ccc(-c4ccccc4CN4CC[C@@H](O)C4)cc2)CC3)cc1
3: COc1ccc(NC(=O)OC[C@H](Oc2cccc3sc(C(=N)N)cc23)c2ccccc2)cc1
4: COc1cccc(-n2nc(C)cc2C(=O)Nc2ccc(-c3ccccc3S(N)(=O)=O)cc2)c1
5: COC(=O)[C@H]1CCC[C@H](C)N1C(=O)[C@H](Cc1cccc(C(=N)N)c1)NS(=O)(=O)c1ccc2ccccc2c1
Sort low-to-high on pKi, please. // list labels; follow requested order 1, 5, 3, 4, 2
(1: 5.00, 5: 5.50, 3: 6.22, 4: 6.96, 2: 9.60)

====

Across several publications, the following pKi results were reported for UniProtKB P00742.
pKi: −log10 of the molar value.
Readout Kind: pKi

Past entries and their recorded results:
Cc1ncn(-c2cc(Cl)c(C(=O)NC[C@@H](c3cccc(F)c3)c3nc4cc(C)c(Cl)cc4[nH]3)c(Cl)c2)n1: 4.82
COc1ccc(C(Nc2ccc(C(=N)N)cc2)C(=O)NCc2ccccc2)cc1OC (stereo unspecified): 4.52

P: CSCC[C@H](NC(=O)c1cccc(C(=N)N)c1)C(=O)NCC1CCC(CN)CC1 (stereo partly specified)
Q: CC(C)CC(=O)Nc1cc(-c2ccc(C(N)=O)cc2C(=O)O)cc(C2CC(C)(c3ccccc3)c3cc(C(=N)N)ccc3N2)c1 (single isomer, unassigned; enantiomer 1)
From the recorded data, which exceeds the other in pKi: P or Q ? # answer = label of selected item Q
(Q: 5.25, P: 4.98)

a: N=C(N)c1ccc2[nH]cc(C(Cc3ccc4ccccc4c3)C(=O)Nc3ccc(-n4cnc5ccccc54)cc3F)c2c1 (stereo unspecified)
b: CC(=O)N[C@H](Cc1ccccc1)C(=O)N1CCC[C@H]1C(=O)N[C@@H](CCCN=C(N)N)B(O)O
Please compare: a and b . Report which one has the smaller pKi value. # answer = label of selected item a
(a: 7.55, b: 8.05)

====

Across several publications, the following Ki results were reported for Coagulation factor X (Homo sapiens).
Readout Kind: Ki (µM)

Past entries and their recorded results:
CN1CCC(Oc2ccc(N(C/C=C/c3cc(C(=N)N)ccc3O)C(=O)CCC(=O)O)cc2C(F)(F)F)CC1: 0.00028
O=C(Nc1ccc(Cl)cc1)c1cc(Cl)ccc1NC(=O)c1scc(Cn2cncn2)c1Cl: 0.0016
N=C(N)c1cccc(COc2ccccc2)c1: 0.0068
CC(C)N1CCC(NC(=O)c2cc3ccccc3n2CC(=O)Nc2ccc(I)cc2)CC1: 0.007

a: N=C(N)c1ccc(Oc2ccc(C(=O)NCCCN)c(Oc3ccc(C(=N)N)cc3)n2)cc1
b: CC(C)(CN(CC(=O)NC(CCCNC(=N)N)B(O)O)C(=O)CCc1ccccc1)c1ccccc1 (stereo not given)
c: CC(C)OC(=O)CC(CCc1ccc(C(=N)N)cc1)c1cccc(C(=N)N)c1 (stereo not given)
d: O=C(Nc1ccc(Cl)cc1)c1ccccc1NC(=O)c1sc2ccccc2c1Cl
Returns the items ordered by Ki, from maximum to minimum. // list labels; follow requested order a, c, b, d
(a: 0.3 µM, c: 0.192 µM, b: 0.099 µM, d: 0.007 µM)

====

Across several publications, the following pKi results were reported for Coagulation factor X (Homo sapiens).
pKi: −log10 of the molar value.
Readout Kind: pKi

Past entries and their recorded results:
N=C(N)NCCC1CCN(C(=O)[C@H](Cc2cccc(C(=N)N)c2)NS(=O)(=O)c2ccc(Oc3ccccc3)cc2)CC1: 6.00
Cc1cc(OCC2CCCN(C(=N)N)C2)cc(OS(=O)(=O)c2ccccc2Cl)c1 (centres undefined): 4.54
CCN(CC)C(=O)c1cccc(Oc2nc(Oc3cccc(C(=N)N)c3)c(F)c(C)c2F)c1: 6.16
CCOC(=O)c1nn(-c2ccc(OC)cc2)c2c(=O)n(-c3ccc(-c4ccccc4CO)cc3)cnc12: 7.35
CN1CC(C)(COc2ccc(C(=N)N)cc2)Oc2cc(N(Cc3ccc(F)cc3)C(=O)C(=O)O)ccc21 (centres undefined): 5.11

a: N=C(N)c1cccc(Cn2c(C(N)=O)cc3c(O)cccc32)c1
b: CN(C)Cc1ccccc1-n1nc(C(F)(F)F)cc1C(=O)Nc1ccc(-c2ccccc2S(C)(=O)=O)cc1F
From the recorded data, which exceeds the other in pKi: a or b ? # answer = label of selected item b
